- assay.explanation: Clearance in African green monkey blood at 35 mg/kg administered as iv infusion twice daily for 7 consecutive days measured on day 1 by LC-MS/MS analysis
- Assay type: ADME, organism-based
- test.conditions: chlorocebus aethiops
test.readout: clearance (mL/min/kg)
Give bare numbers, in mL/min/kg.

Problem: Recorded clearance for `CN[C@@H]1[C@@H](O)[C@@H](O[C@@H]2[C@@H](O)[C@H](O[C@H]3OC(CNCCO)=CC[C@H]3N)[C@@H](N)C[C@H]2NC(=O)[C@@H](O)CCN)OC[C@]1(C)O` , please?
Solution: 1.67

----------
- assay.explanation: AUC (0 to 24 hrs) in African green monkey blood at 35 mg/kg administered as iv infusion twice daily for 7 consecutive days measured on day 1 by LC-MS/MS analysis
- Type: ADME, organism-based
- Design: dose 35 mg/kg, time < 24 hr, route intravenous
- test.conditions: chlorocebus aethiops
test.readout: AUC(0-t) at 24 h (µg·h/mL)
Numbers only, in µg·h/mL.

Problem: GET /values?readout=AUC(0-t) at 24 h&item= `CN[C@@H]1[C@@H](O)[C@@H](O[C@@H]2[C@@H](O)[C@H](O[C@H]3OC(CNCCO)=CC[C@H]3N)[C@@H](N)C[C@H]2NC(=O)[C@@H](O)CCN)OC[C@]1(C)O`
Solution: 306

----------
- assay.explanation: Elimination half life in African green monkey blood at 25 mg/kg administered as iv infusion twice daily for 7 consecutive days measured on day 7 by LC-MS/MS analysis
- Assay type: ADME, organism-based
- test.conditions: chlorocebus aethiops, read-out: beta t1/2 (converted)
test.readout: half-life (h)
Give bare numbers, in h.

Problem: Param item = CN[C@@H]1[C@@H](O)[C@@H](O[C@@H]2[C@@H](O)[C@H](O[C@H]3OC(CNCCO)=CC[C@H]3N)[C@@H](N)C[C@H]2NC(=O)[C@@H](O)CCN)OC[C@]1(C)O [PLAZOMICIN] ; retrieve measured half-life.
Solution: 1.8

----------
- assay.explanation: AUC (0 to 24 hrs) in African green monkey blood at 25 mg/kg administered as iv infusion twice daily for 7 consecutive days measured on day 7 by LC-MS/MS analysis
- Assay type: ADME, organism-based
- Set-up: time < 24 hr, dose 25 mg/kg, route intravenous
- test.conditions: chlorocebus aethiops
test.readout: AUC at 24 h (µg·h/mL)
One number for each entry, in µg·h/mL.

Problem: What AUC at 24 h value was documented for this molecule, `CN[C@@H]1[C@@H](O)[C@@H](O[C@@H]2[C@@H](O)[C@H](O[C@H]3OC(CNCCO)=CC[C@H]3N)[C@@H](N)C[C@H]2NC(=O)[C@@H](O)CCN)OC[C@]1(C)O` ?
Solution: 208

Data origin, for the record: ChEMBL document CHEMBL3868595
